src = patent US6825348B2

target: HSV thymidine kinase (Human herpesvirus 1); experiment: Phosphorylation of nucleosides by HSV thymidine kinase; assay type: biochemical
Sequence (P0DTH5 whole entry, looked up): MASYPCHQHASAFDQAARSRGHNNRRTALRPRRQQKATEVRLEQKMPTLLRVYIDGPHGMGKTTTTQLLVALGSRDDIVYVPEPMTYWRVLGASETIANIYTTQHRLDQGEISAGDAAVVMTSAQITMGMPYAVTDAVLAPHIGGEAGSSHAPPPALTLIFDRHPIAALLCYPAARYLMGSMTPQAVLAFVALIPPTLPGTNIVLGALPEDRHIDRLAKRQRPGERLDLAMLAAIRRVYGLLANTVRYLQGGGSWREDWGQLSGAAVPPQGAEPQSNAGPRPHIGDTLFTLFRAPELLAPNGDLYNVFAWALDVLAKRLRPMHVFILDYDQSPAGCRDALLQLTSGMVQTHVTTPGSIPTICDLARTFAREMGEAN
observed_property: rel. Vmax, HSV thymidine kinase

stdin: Request the reported rel. Vmax, HSV thymidine kinase associated with Nc1ncnc2ncn(COCCO)c12 [Compound 14, 7-[(2-Hydroxyethoxy)methyl]adenine]
stdout: <3.0

stdin: rel. Vmax, HSV thymidine kinase lookup needed for Nc1ncnc2c1ncn2COCCO [Compound 1, 9-[(2-Hydroxyethoxy)methyl]adenine, reference compound] , thanks.
stdout: <3.0

stdin: Item Nc1ncnc2c1ncn2[C@@H]1O[C@H](CO)[C@@H](O)[C@@H]1O [ara A 3, 9-(β-D-arabinofaranosyl)adenine, reference compound] has what recorded rel. Vmax, HSV thymidine kinase?
stdout: <3.0

###

assay: Solubility in water (phosphate buffer, UV absorbance); conditions: phosphate buffer, pH 6.8, aqueous buffer, thermodynamic from solid
Consider the following compounds; for each one, report its solubility at 20 h.

stdin: Dear colleague, I am looking for the recorded solubility at 20 h of the following compound: Nc1nc2c(ncn2COCCO)c(=O)[nH]1 [acyclovir 2, 9-[(2-hydroxyethoxy)methyl]guanine, reference compound]
stdout: 0.4 mg/mL

stdin: Name the reported solubility at 20 h value associated with the compound Nc1nc2c(ncn2CCOCP(=O)(O)O)c(=O)[nH]1 [PMEG 27, 9-[2-(phosphonomethoxy)ethyl]guanine, reference compound]
stdout: 0.36 mg/mL

stdin: Which solubility at 20 h is listed for Nc1ncnc2c1ncn2COCCO [Compound 1, 9-[(2-Hydroxyethoxy)methyl]adenine, reference compound] ?
stdout: 2.56 mg/mL

stdin: // returns reported solubility at 20 h for input Nc1ncnc2ncn(COCCO)c12 [Compound 14, 7-[(2-Hydroxyethoxy)methyl]adenine]
stdout: 4.71 mg/mL
